These entries and their values trace back to ChEMBL document CHEMBL4483862.

System: Plasmodium berghei
protocol-details: Luciferase/luciferin-expressing antifolate-resistant parasites were used to infect a culture of HepG2 cells that were pre-incubated with compounds. Infected hepatocytes emit light due to the luciferase reaction. Assay results are presented as the percent inhibition of light emission compared to control. […]
Type: functional
condition-label: sporozoite, HEPG2TOX_HILL_SLOPE 2.01, HEPG2TOX_R_SQUARED 0.621, PBLUC_HILL_SLOPE 5.25, PBLUC_R_SQUARED 0.58, read-out: LUCIFERASE INFECTION ASSAY - IC50
quantity-measured: IC50 (µM)
Numbers only here, please. The scale is µM.

// query Would you mind telling me what IC50 value was observed for Cc1cccc(C(=O)Nc2nc3ccccn3c2C(=O)NC2CCCCC2)c1 ?
// result 1.91
